Cited source: the supplement of paper PMC9170038

tested on: K4 kissing-loop RNA reporter; assay: apparent KD of K4 kissing-loop reporter; higher = weaker reporter binding; details: Eterna round: R107; input ligand: arginine 13.2 mM;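 further: bound reporter read as fluorescence of individual clusters on recovered sequencing chips by microscopy, with normalized cluster intensities fitted with a binding model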
// FALSE strictly below 200 nM in apparent KD of K4 kissing-loop reporter; TRUE otherwise

monomer-sequence | label-value
GCAUCCAUGGCAGGAUAUAGGUUCAUGGAGUGAUGUUCCAUAACCCGAGUGAUGUUCGUUAUCCACCUAGAAGGGCCAUGGAUGC | FALSE
GACUGGUUAACAGAUACCAGCCACAAGCGUUGAGGCGGCGGUAAAGUGAUGUUUUAUAAAGGCCCUUGGCAGCUGACUAGUUCGU [theeternabot_exclusion_KL_Theo_B_28] | TRUE
UGUCGGUGAAGAAUGUUAGUGAUGUUGGCACGAGGACCGGUACGGCCGCCACUCGGUAAUCAUCGCAAUUAUCGAUGGCGUAGCC [theeternabot_exclusion_KL_Trp_A_3] | FALSE
CGGGUACGUCAAGGAUAUAGGCAUGACGUAGUGCAGUGAUGUUGCUCGAGUCUCUUCAACUGAGGACUAGAAGGUGAUCGUAACA [theeternabot_sameState_KL_FMN_B_15] | TRUE

From here, focus on the item given below.
# bool: apparent KD of K4 kissing-loop reporter of GGUUCUGUUUUAGGUUUAGUGAUGUUGAAUCGAGGACCGGUACGGCCGCCACUCGGUGACGUCGUAACUUUGGAGGUCCUAACCA [theeternabot_exclusion_KL_Trp_A_47] >= 200 nM
TRUE
